- test: solvent given as SMILES
- condition.notes: in ClCCl
Lab note: cut-off is 400 nm. Strictly less in absorption maximum is rule met. Exactly 400 nm or more is rule not met.

[[record]]
structure = "O=C1NC(=O)C(c2c[nH]c3ccccc23)=C1c1c[nH]c2ccccc12"
group = "rule not met"

[[record]]
structure = "CC(C)c1cccc(C(C)C)c1N1C(=O)c2cccc3c(Oc4ccc(Cl)cc4)ccc(c23)C1=O"
group = "rule met"

[[record]]
structure = "COc1cc(OC)c2cc(C#N)c(=N)oc2c1"
group = "rule met"

[[record]]
structure = "F[B-]1(F)n2c(c3cc4ccccc4cc3c2-c2ccccc2)C=C2c3cc4ccccc4cc3C(c3ccccc3)=[N+]21"
group = "rule not met"


Please indicate whether the reported absorption maximum of `CC1=c2c3c4cccc5cccc(c=3c(C)[n+]2[B-](F)(F)n2c(C)c3cc6c(-c7ccccc7)c7c(c(-c8ccccc8)c6cc3c21)-c1cccc2cccc-7c12)c54` is strictly below 400 nm.
rule not met

Cool, now `F[B-]1(F)n2c(-c3ccccc3)c3ccc4ccccc4c3c2N=C2c3c(ccc4ccccc34)C(c3ccccc3)=[N+]21`
rule not met

Then `Ic1ccc(-c2c3ccc(=[N+]4CCCCC4)cc-3oc3cc(N4CCCCC4)ccc23)cc1` ?
rule not met

Note, next up: `CCOC(=O)c1c(-c2c(Cl)c3cc(C)ccc3oc2=O)nn(-c2cccc(Cl)c2)c1C(=O)OCC`
rule met

Next record, please: `CC(=O)c1ccc(-c2cccc3ncc(-c4ccccc4)n23)cc1`
rule met

Another compound: `CCn1c2ccccc2c2cc(-c3cc(-c4ccc5c(c4)c4ccccc4n5CC)ncn3)ccc21`
rule met

---

- test: solvent given as SMILES
- condition.notes: in CN(C)C=O
measure.name: absorption maximum
Field note: include the unit after the figure.

Past entries and their recorded results:
[[record]]
structure = "O=[N+]([O-])c1ccc(NCCNCc2c3ccccc3cc3ccccc23)c([N+](=O)[O-])c1"
recorded_value = "363 nm"

[[record]]
structure = "CCCCCCC(CCCCCC)N1C(=O)c2cccc3c(-c4ccccc4)ccc(c23)C1=O"
recorded_value = "355.2 nm"

[[record]]
structure = "c1cc2c([nH]c3c4[nH]c5sccc5c4c4nsnc4c23)s1"
recorded_value = "423 nm"

[[record]]
structure = "CCN(CC)c1ccc2c(-c3ccccc3C(=O)[O-])c3ccc(=[N+](CC)CC)cc-3oc2c1"
recorded_value = "560 nm"

[[record]]
structure = "CCCCCCC(CCCCCC)N1C(=O)c2cccc3c(-c4ccc(N(C)C)cc4)ccc(c23)C1=O"
recorded_value = "433.8 nm"


Could you share which absorption maximum value was measured for `[C-]#[N+]c1ccc(-c2ccc(N)cc2)cc1` ?
314 nm

Another compound to look at: `Cc1cc(C)cc(NC(=O)c2sc(Br)nc2C)c1`
285.3 nm

Here is the next compound: `CCC(=O)c1ccc2cc(N(C)C)ccc2c1`
350 nm

Ok, now `CN(C)c1cccc2c1ccc1c(=O)oc(-c3ccc(C(F)(F)F)cc3)cc12`
395 nm

Lookup `CCN(CC)c1ccc2cc(/C=C(\C#N)c3nc4ccccc4o3)c(=O)oc2c1`
529 nm

---

absorption maximum for assorted compounds
- test: solvent given as SMILES
- condition.notes: in CN(C)C=O
Supply the numeric figure in nm, leaving out any unit text.

[[record]]
structure = "C(=C\\c1ccc(-c2nnc(-c3ccc(/C=C/c4ccc(-c5nc(-c6ccccc6)c(-c6ccccc6)[nH]5)cc4)cc3)o2)cc1)/c1ccc(-c2nc(-c3ccccc3)c(-c3ccccc3)[nH]2)cc1"
recorded_value = 397

[[record]]
structure = "CCC1(CC)c2cc(C#Cc3cc(C#Cc4ccc5c(c4)C(CC)(CC)c4cc(N(c6ccccc6)c6ccccc6)ccc4-5)c4ccc5c(C#Cc6ccc7c(c6)C(CC)(CC)c6cc(N(c8ccccc8)c8ccccc8)ccc6-7)cc(C#Cc6ccc7c(c6)C(CC)(CC)c6cc(N(c8ccccc8)c8ccccc8)ccc6-7)c6ccc3c4c65)ccc2-c2ccc(N(c3ccccc3)c3ccccc3)cc21"
recorded_value = 506

[[record]]
structure = "CC(C)(C)c1ccc(-c2sc3c(-c4ccc(C(C)(C)C)cc4)c4n(c3c2-c2ccc(C(C)(C)C)cc2)[B-](F)(F)[N+]2=Cc3c(-c5ccc(C(C)(C)C)cc5)c5sc(-c6ccc(C(C)(C)C)cc6)c(-c6ccc(C(C)(C)C)cc6)c5n3[B-](F)(F)[N+]2=C4)cc1"
recorded_value = 584

[[record]]
structure = "COCCOCCOCCOCCOc1ccc(OCCOCCOCCOCCOC)c(C=O)c1"
recorded_value = 350


Could you tell me which absorption maximum is on file for `NCCCCCCCCCCCCN1C(=O)c2ccc3c4ccc5c6c(ccc(c7ccc(c2c37)C1=O)c64)C(=O)N(c1ccc(O)cc1)C5=O` ?
525

Now the same for `COCCOCCOCCOc1cc(C=O)c(OCCOCCOCCOC)cc1C=O`
393

Same thing, different compound: `CCN(CC)c1ccc2c(-c3ccc(S(=O)(=O)[O-])cc3S(=O)(=O)[O-])c3ccc(=[N+](CC)CC)cc-3oc2c1`
552

Now the same for `Cc1nc(-c2ccc(-n3c4ccccc4c4ccccc43)cc2)cc(-c2ccc(-n3c4ccccc4c4ccccc43)cc2)n1`
343

`CN(C)c1ccc(/C=C/c2nc3c4ccccc4c4ccccc4c3[nH]2)cc1` , same question.
392

Now the same for `CC(C)(C)c1ccc2c(c1)c1cc(C(C)(C)C)ccc1n2-c1cccc(-c2nc(-c3cccc(P(=O)(c4ccccc4)c4ccccc4)c3)nc(-c3cccc(P(=O)(c4ccccc4)c4ccccc4)c3)n2)c1`
343

Next: `CCN(CC)/C(C)=N\c1ccc2c3c(cccc13)C(=O)c1ccccc1-2`
479

Thanks! And `COc1ccc(-c2cc(-c3ccc(C)cc3)c(C#N)c(OC)n2)cc1` ?
343

Can you handle `O=Cc1c(O)c(-c2nc3ccccc3s2)cc2ccccc12` next?
346

---

- test: solvent given as SMILES
- condition.notes: in c1ccncc1
measure.name: absorption maximum

Solved entries:
[[record]]
compound = "C1=C(c2ccc(-c3cccs3)s2)CCCC1"
recorded_value = "345 nm"

[[record]]
compound = "c1csc(-c2cnc(-c3cccs3)c3nonc23)c1"
recorded_value = "472 nm"

[[record]]
compound = "O=C1/C(=C/C=C/c2cc3c4c(c2)CCCN4CCC3)CC/C1=C\\C=C\\c1cc2c3c(c1)CCCN3CCC2"
recorded_value = "534 nm"

[[record]]
compound = "CC1CC=C(c2ccc(-c3ccc(C#N)s3)s2)CC1 (configuration not stated)"
recorded_value = "363 nm"

[[record]]
compound = "O=Cc1ccc(-c2ccc(C3=CCC(c4ccccc4)CC3)s2)s1 (configuration not stated)"
recorded_value = "393 nm"


Endpoint output: absorption maximum of `[C-]#[N+]c1ccc(-c2ccc(N)cc2)cc1` . Value?
325 nm

Try this compound too: `OC1(c2ccc(-c3cccs3)s2)CCC1`
316 nm

---

- test: solvent given as SMILES
- condition.notes: in C1CCCCC1
Overview of reported absorption maximum across a group of compounds:
The answer is to be given in nm; state only the numeric part.

Worked cases, absorption maximum given:
[[record]]
structure = "CN(C)c1cccc2c1C(=O)c1ccccc1-2"
measure_name = "absorption maximum"
recorded_value = 433

[[record]]
structure = "N#C/C(=C\\c1ccc(Cl)cc1)c1nc2ccccc2s1"
measure_name = "absorption maximum"
recorded_value = 350

[[record]]
structure = "O=C1Nc2ccccc2/C1=C/C(=O)c1ccc(Cl)cc1"
measure_name = "absorption maximum"
recorded_value = 335

[[record]]
structure = "c1ccc(-c2nc(-c3c4ccccc4cc4ccccc34)n3ccccc23)cc1"
measure_name = "absorption maximum"
recorded_value = 375

[[record]]
structure = "COc1c2ccccc2c(OC)c2c1c1c(F)cccc1n2C"
measure_name = "absorption maximum"
recorded_value = 403

[[record]]
structure = "COc1cc(OC)c2c(c1)C(=O)c1cc(OC)cc(OC)c1-2"
measure_name = "absorption maximum"
recorded_value = 489

[[record]]
structure = "COc1ccc2c(c1)C(=O)c1cc(OC)cc(OC)c1-2"
measure_name = "absorption maximum"
recorded_value = 478

[[record]]
structure = "CN1c2ccc(C(=O)c3ccccc3)cc2Sc2cc(C(=O)c3ccccc3)ccc21"
measure_name = "absorption maximum"
recorded_value = 390


Field request: absorption maximum | item: `Oc1ccc2ccccc2c1-c1nc(-c2ccccc2)c2ccccn12`
361

Thanks! And `Cc1ccc(/C=C(\c2ccccc2)c2nc3ccccc3s2)cc1` ?
340

Record: `CCC1=C(C)C2=Cc3cc(I)cn3[B-](F)(F)[N+]2=C1C`
528

Now the compound `COc1ccc2c(c1)-c1cc(OC)ccc1C2=O`
361

---

- test: solvent given as SMILES
- condition.notes: in C1CCOC1
measure.name: absorption maximum (nm)
Numbers only; they are read as nm.

[[record]]
compound = "CCn1c2ccccc2c2cc(/C=C/c3cc(/C=C/c4ccc5c(c4)c4ccccc4n5CC)[n+](CCCS(=O)(=O)[O-])c(/C=C/c4ccc5c(c4)c4ccccc4n5CC)c3)ccc21"
recorded_value = 464

[[record]]
compound = "Cc1cc(C)c([B-]2(c3c(C)cc(C)cc3C)[O+]=P(c3ccccc3)(c3ccccc3)c3cc(-c4ccc(N(C)C)cc4)sc3-c3sc(-c4ccc(N(C)C)cc4)cc32)c(C)c1"
recorded_value = 445


Dear colleague, I am looking for the recorded absorption maximum of the following compound: `C1=C(c2ccccc2)C(c2ccccc2)=CC1c1ccccc1`
290

Same thing, different compound: `CCOC(=O)COc1ccc(/C=C/c2cc(C)c3n2[B-](F)(F)[N+]2=C(c4[nH]c(C)cc4C)c4ccccc4C2=C3)cc1`
679

Also `CN1c2ccc(C(=O)c3ccccc3)cc2Sc2cc(C(=O)c3ccccc3)ccc21` , if possible.
402

Try this compound next: `Cc1ccc(C2=C3C=CC(Sc4ccccc4)=[N+]3[B-](F)(F)n3c(Sc4ccccc4)ccc32)cc1`
577

Would you mind doing NS(=O)(=O)c1ccc(N2N=C(c3ccc(O)cc3)CC2c2ccc([N+](=O)[O-])cc2)cc1 (configuration not stated) as well?
353

Same question for `CCn1c2ccccc2c2cc(/C=C/c3cc(/C=C/c4ccc5c(c4)c4ccccc4n5CC)nc(SC)n3)ccc21` please.
406

Similarly, `c1ccc2cc(-n3cnc4ccccc43)ccc2c1` ?
277

Another compound: `CCOC(=O)/C(C#N)=C\c1ccc2c(c1)c1ccccc1n2-c1ccc(C)cc1`
390

How about this compound: `O=C1OC(=O)c2cc(Oc3ccccc3)c3c4ccc5c6c(cc(Oc7ccccc7)c(c7ccc1c2c73)c64)C(=O)OC5=O`
516

Here is the next compound: `CC(=O)c1c2c(cc3c(N(C)C)cccc13)CCC2`
330

Now consider `F[B-]1(F)n2c(c3cccc4cccc2c43)=Nc2ccc3ccccc3[n+]21` and answer again.
486

Also need `COc1ccc(-c2nc(-c3ccccc3O)c(-c3ccccc3O)n2-c2ccc(C)cc2)cc1` , thanks.
305

`CCCCC1(CCCC)c2cc(C#Cc3ccc(/C=C(\C)c4ccccc4)cc3)ccc2-c2ccc(C#Cc3ccc(/C=C(\C)c4ccccc4)cc3)cc21` , same question.
365

Input `CC1=[N+]2C(=c3c4c5ccccc5cc5cccc(c6cc(C)n(c36)[B-]2(F)F)c54)C=C1`
584

Entry `CN(C)c1ccc(C#Cc2ccc(C=O)cc2)cc1` please
379.51
